MIC by entry:
tested on: Escherichia coli ATCC BAA-2523; type: cell-based; conditions: ATCC BAA-2523
Bridge positions count the residues as written; N and C are the ends. Square brackets hold non-standard residues; d marks the D form. Peptide text beside a SMILES is read from it. * marks the point of attachment. Dab(CH2SO3H) = N[C@@H](CCNCS(=O)(=O)O)C(=O)O; Heptanoyl(6-Me) = CC(C)CCCCC(=O)*; Nonanoyl = CCCCCCCCC(=O)*; Heptanoyl = CCCCCCC(=O)*; Orn = NCCC[C@H](N)C(=O)O; Dab = NCC[C@H](N)C(=O)O
Reported Property: MIC (mg/L)

| Compound | Reported Property | Value Units | Recorded Number |
| --- | --- | --- | --- |
| CCCCCCCCC(=O)N[C@@H](CCN)C(=O)N[C@H](C(=O)N[C@H](CO)C(=O)N[C@H]1CCNC(=O)[C@H]([C@@H](C)O)NC(=O)[C@H](CCN)NC(=O)[C@H](CCCN)NC(=O)[C@H]([C@@H](C)O)NC(=O)[C@@H](Cc2ccccc2)NC(=O)[C@H](CCN)NC1=O)[C@@H](C)O [Compound 80] (Nonanoyl-[Dab]T[dS][Dab][Dab][dF]T[Orn][Dab]T; lactam 4-C) | MIC | mg/L | 0.06 |
| CC(C)CCCCC(=O)N[C@@H](CCN)C(=O)N[C@H](C(=O)N[C@H](CO)C(=O)N[C@H]1CCNC(=O)[C@H]([C@@H](C)O)NC(=O)[C@H](CCN)NC(=O)[C@H](CCN)NC(=O)[C@H]([C@@H](C)O)NC(=O)[C@@H](Cc2ccccc2)NC(=O)[C@H](CCNCS(=O)(=O)O)NC1=O)[C@@H](C)O [Compound 109] ({Heptanoyl(6-Me)}-[Dab]T[dS][Dab][Dab(CH2SO3H)][dF]T[Dab][Dab]T; lactam 4-C) | MIC | mg/L | 0.06 |
| CCCCCCC(=O)N[C@@H](CCN)C(=O)N[C@H](C(=O)N[C@H](CO)C(=O)N[C@H]1CCNC(=O)[C@H]([C@@H](C)O)NC(=O)[C@H](CCN)NC(=O)[C@H](CCCN)NC(=O)[C@H]([C@@H](C)O)NC(=O)[C@@H](Cc2ccccc2)NC(=O)[C@H](CCN)NC1=O)[C@@H](C)O [Compound 79] (Heptanoyl-[Dab]T[dS][Dab][Dab][dF]T[Orn][Dab]T; lactam 4-C) | MIC | mg/L | 0.03 |

====

system: Pseudomonas aeruginosa PAE19-3; type: cell-based; settings: PAE19-3
Bridge positions count the residues as written; N and C are the ends. Square brackets hold non-standard residues; d marks the D form. Peptide text beside a SMILES is read from it. * marks the point of attachment. Heptanoyl(6-Me) = CC(C)CCCCC(=O)*; dOrn = NCCC[C@@H](N)C(=O)O; Nonanoyl = CCCCCCCCC(=O)*; dDab = NCC[C@@H](N)C(=O)O; Heptanoyl = CCCCCCC(=O)*; Dab = NCC[C@H](N)C(=O)O; Dap = NC[C@H](N)C(=O)O
MIC by entry:
Reported Property: MIC (mg/L)

| Compound | Value Units | Recorded Number |
| --- | --- | --- |
| CCCCCCC(=O)N[C@@H](CCN)C(=O)N[C@H](C(=O)N[C@H](CCCN)C(=O)N[C@H]1CCNC(=O)[C@H]([C@@H](C)O)NC(=O)[C@H](CCN)NC(=O)[C@H](CCN)NC(=O)[C@H](CC(C)C)NC(=O)[C@@H](Cc2ccccc2)NC(=O)[C@H](CCN)NC1=O)[C@@H](C)O [Compound 44] (Heptanoyl-[Dab]T[dOrn][Dab][Dab][dF]L[Dab][Dab]T; lactam 4-C) | mg/L | 2 |
| CCCCCCCCC(=O)N[C@@H](CCN)C(=O)N[C@H](C(=O)N[C@H](CCN)C(=O)N[C@H]1CCNC(=O)[C@H]([C@@H](C)O)NC(=O)[C@H](CCN)NC(=O)[C@H](CCN)NC(=O)[C@H]([C@@H](C)O)NC(=O)[C@@H](Cc2ccccc2)NC(=O)[C@H](CCN)NC1=O)[C@@H](C)O [Compound 15] (Nonanoyl-[Dab]T[dDab][Dab][Dab][dF]T[Dab][Dab]T; lactam 4-C) | mg/L | 2 |
| CC(C)CCCCC(=O)N[C@@H](CN)C(=O)N[C@H](C(=O)N[C@H](CCN)C(=O)N[C@H]1CCNC(=O)[C@H]([C@@H](C)O)NC(=O)[C@H](CCN)NC(=O)[C@H](CCN)NC(=O)[C@H](CC(C)C)NC(=O)[C@@H](CC(C)C)NC(=O)[C@H](CCN)NC1=O)[C@@H](C)O [Compound 97] ({Heptanoyl(6-Me)}-[Dap]T[dDab][Dab][Dab][dL]L[Dab][Dab]T; lactam 4-C) | mg/L | 0.5 |
